assayed_system: T1, ZIKV (prM80E) with a C-terminal myc-myc-hexahistidine tag (Zika virus, UniProt A0A024B7W1 104-694)
T1 construct: also called ZIKV (prM80E)-mmH; ZIKV-mmH
run_description: SPR, mAb captured, 25C
metric: t½
In your response, put the unit directly after the numeric value.

# example entries with known answers
binder: H4H25619P (antibody, V domains shown) VH: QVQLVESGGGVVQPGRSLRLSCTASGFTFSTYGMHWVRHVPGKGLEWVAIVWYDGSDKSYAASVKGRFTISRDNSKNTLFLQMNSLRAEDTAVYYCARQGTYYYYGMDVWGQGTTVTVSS VL: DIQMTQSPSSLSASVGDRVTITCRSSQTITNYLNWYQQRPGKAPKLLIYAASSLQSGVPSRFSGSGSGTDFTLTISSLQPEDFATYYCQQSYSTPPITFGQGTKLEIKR
result: 22.4 min
//
binder: H4H25591P (antibody, V domains shown) VH: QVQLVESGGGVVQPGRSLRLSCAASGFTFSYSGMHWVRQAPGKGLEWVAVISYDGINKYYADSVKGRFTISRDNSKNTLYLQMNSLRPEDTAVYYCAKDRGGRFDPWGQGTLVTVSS VL: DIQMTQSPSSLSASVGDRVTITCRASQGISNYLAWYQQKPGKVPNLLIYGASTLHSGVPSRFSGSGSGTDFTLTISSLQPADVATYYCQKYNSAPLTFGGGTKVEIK
result: 3.6 min

Okay, now this binder:
Lab note: measured t½ of H4H25640P (antibody, V domains shown) VH: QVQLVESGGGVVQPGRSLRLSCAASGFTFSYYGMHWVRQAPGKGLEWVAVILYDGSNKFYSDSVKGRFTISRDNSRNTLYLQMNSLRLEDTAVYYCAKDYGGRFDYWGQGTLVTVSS VL: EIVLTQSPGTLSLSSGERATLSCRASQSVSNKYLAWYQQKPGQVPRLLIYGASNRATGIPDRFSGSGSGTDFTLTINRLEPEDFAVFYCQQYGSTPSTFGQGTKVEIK was 16 min
